Consider the following compounds; for each one, report its active dose in FST (antidepressant-like effect).
tested on: Albino Swiss mice; test: forced swim test; assay type: in vivo; conditions: ip, 30 min before test
Numbers only, in mg/kg.

State the recorded active dose in FST (antidepressant-like effect) for every item in the following list.
1. CC1(C)Cc2cccc(OCCN3CCC(NS(=O)(=O)c4ccc(F)cc4)CC3)c2O1 [Compound 6]
2. CC1(C)Cc2cccc(OCCN3CCC(NS(=O)(=O)c4cncc5ccccc45)CC3)c2O1 [Compound 13]
3. CN1CCN2c3ncccc3Cc3ccccc3C2C1 (stereo not shown) [Mirtazapine, reference compound]

Result ::
8
1
16

Query :: Which active dose in FST (antidepressant-like effect) reading was recorded for the compound CC1(C)Cc2cccc(OCCN3CCC(NS(=O)(=O)c4cc(Cl)ccc4F)CC3)c2O1 [Compound 8] ?
Result :: 4

###

target: human 5-HT2A receptor (Homo sapiens); construct: host or cells: CHO-K1; experiment: radioligand binding, [3H]-ketanserin displacement at 5-HT2AR in CHO-K1 cells; settings: ± SEM; footnote HEK-293 cells, method CHO-K1 cells
Sequence (P28223 whole entry): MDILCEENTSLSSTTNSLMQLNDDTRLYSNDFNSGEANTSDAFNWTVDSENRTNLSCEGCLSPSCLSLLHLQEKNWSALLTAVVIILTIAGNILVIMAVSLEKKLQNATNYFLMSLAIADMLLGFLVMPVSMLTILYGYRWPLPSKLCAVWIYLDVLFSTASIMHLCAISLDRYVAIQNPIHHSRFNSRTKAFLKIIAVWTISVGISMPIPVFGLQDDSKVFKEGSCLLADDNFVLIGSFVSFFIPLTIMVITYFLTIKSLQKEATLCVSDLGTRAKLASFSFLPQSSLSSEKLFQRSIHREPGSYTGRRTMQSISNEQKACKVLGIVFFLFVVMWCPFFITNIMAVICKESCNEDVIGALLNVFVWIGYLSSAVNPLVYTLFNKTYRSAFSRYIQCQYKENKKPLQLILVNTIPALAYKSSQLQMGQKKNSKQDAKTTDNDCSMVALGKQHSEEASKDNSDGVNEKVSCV
Please provide measured Ki for the entries that follow.
One number for each entry, in nM.

Example entries and their recorded answers appear below.
CC1(C)Cc2cccc(OCCN3CCC(NS(=O)(=O)c4ccc(F)cc4)CC3)c2O1	538
CC1(C)Cc2cccc(OCCN3CCC(NS(=O)(=O)c4cncc5ccccc45)CC3)c2O1	1420

Let us move to another entry and its Ki.
Query :: Look at this compound and give its reported Ki. CC1(C)Cc2cccc(OCCN3CCC(NS(=O)(=O)c4cc(Cl)ccc4F)CC3)c2O1
Result :: 1420

###

target: 5-HT1AR (Homo sapiens); construct: Eurofins Scientific, France; assay: functional profiling at 5-HT1AR, cAMP-based assays (Eurofins); details: cAMP-based assay, read-out: 5-HT1AR agonist activity EC50
Sequence (P08908 whole entry): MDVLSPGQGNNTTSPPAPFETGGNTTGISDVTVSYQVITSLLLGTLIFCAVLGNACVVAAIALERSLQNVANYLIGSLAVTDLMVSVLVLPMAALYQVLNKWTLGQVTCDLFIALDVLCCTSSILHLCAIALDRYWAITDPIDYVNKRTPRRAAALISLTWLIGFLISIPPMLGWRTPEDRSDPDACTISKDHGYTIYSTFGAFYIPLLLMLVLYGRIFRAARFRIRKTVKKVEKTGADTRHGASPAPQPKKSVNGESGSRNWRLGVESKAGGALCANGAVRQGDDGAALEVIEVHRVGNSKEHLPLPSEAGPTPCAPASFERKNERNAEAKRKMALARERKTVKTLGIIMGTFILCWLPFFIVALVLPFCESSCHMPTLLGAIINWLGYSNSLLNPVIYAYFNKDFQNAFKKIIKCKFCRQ
I'd appreciate it if you could supply EC50 values for the items below.

# per-item lookup of EC50; items listed below
1. CC1(C)Cc2cccc(OCCN3CCC(NS(=O)(=O)c4ccc(F)cc4)CC3)c2O1
2. CC1(C)Cc2cccc(OCCN3CCC(NS(=O)(=O)c4cc(Cl)ccc4F)CC3)c2O1
3. CC1(C)Cc2cccc(OCCN3CCC(NS(=O)(=O)c4cncc5ccccc45)CC3)c2O1

Result ::
["> 4 µM", "> 4 µM", "> 4 µM"]

###

Record form. Attribute: Ki. Fill in for each entry.
target: human 5-HT7b receptor (Homo sapiens); construct: expressed in transfected cells; host or cells: HEK293; test: radioligand binding, [3H]-5-CT displacement at 5-HT7R in HEK293 cells; conditions: read-out: Ki [nM] ± SEM 5-HT7
Sequence (P34969 1-432): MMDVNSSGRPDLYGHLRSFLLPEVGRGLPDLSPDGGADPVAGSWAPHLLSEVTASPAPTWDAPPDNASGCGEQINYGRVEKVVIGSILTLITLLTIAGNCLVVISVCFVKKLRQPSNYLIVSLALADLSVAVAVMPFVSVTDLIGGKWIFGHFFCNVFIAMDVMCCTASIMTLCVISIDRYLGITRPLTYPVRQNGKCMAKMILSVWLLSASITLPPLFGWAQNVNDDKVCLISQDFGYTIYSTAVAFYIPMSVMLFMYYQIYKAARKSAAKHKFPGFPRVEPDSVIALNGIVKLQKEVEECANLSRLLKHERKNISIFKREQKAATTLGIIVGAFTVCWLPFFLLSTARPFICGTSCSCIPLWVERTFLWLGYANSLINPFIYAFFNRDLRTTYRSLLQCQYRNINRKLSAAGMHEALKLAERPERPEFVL
Give the figure together with its unit, number first.

COc1ccc(Cl)cc1S(=O)(=O)NC1CCN(CCOc2cccc3c2OC(C)(C)C3)CC1	86 nM
CC1(C)Cc2cccc(OCCN3CCC(NS(=O)(=O)c4cccc5ccccc45)CC3)c2O1	50 nM
CC1(C)Cc2cccc(OCCN3CCC(CNS(=O)(=O)c4cccc(Cl)c4)CC3)c2O1	664 nM
COc1ccc(OC)c(S(=O)(=O)NC2CCN(CCOc3cccc4c3OC(C)(C)C4)CC2)c1	95 nM
CC1(C)Cc2cccc(OCCN3CCC(CNS(=O)(=O)c4ccc(F)cc4)CC3)c2O1	727 nM

Hi, could you look up Ki for each item in my list?
1. CC1(C)Cc2cccc(OCCN3CCC(CNS(=O)(=O)c4cccc5ccccc45)CC3)c2O1
2. CC1(C)Cc2cccc(OCCN3CCC(NS(=O)(=O)c4ccc(F)cc4)CC3)c2O1
3. CC1(C)Cc2cccc(OCCN3CCC(NS(=O)(=O)c4ccc5ccccc5c4)CC3)c2O1

Result ::
1. 366 nM
2. 35 nM
3. 67 nM

Data origin, for the record: paper PMC8270334
